System: Staphylococcus saprophyticus
PROTOCOL TEXT: Antibacterial activity against methicillin-resistant mecA-positive Staphylococcus saprophyticus isolate TSU47 isolated from genitourinary tracts of acute cystitis patient after 24 hrs at 35 degC by agar dilution method
Type: functional
EXPERIMENTAL CONTEXT: isolate TSU47, Urine
# note: exactly 4 µg/mL is not below, so it is label 0; use label 1 for MIC strictly under it

**Q:** In the record for C[C@@H](O)[C@H]1C(=O)N2C(C(=O)O)=C(SCCNC=N)C[C@H]12 [IMIPENEM ANHYDROUS] , is MIC less than 4 µg/mL?
**A:** label 1

**Q:** I wonder whether CC[C@H]1OC(=O)[C@H](C)[C@@H](O[C@H]2C[C@@](C)(OC)[C@@H](O)[C@H](C)O2)[C@H](C)[C@@H](O[C@@H]2O[C@H](C)C[C@H](N(C)C)[C@H]2O)[C@](C)(OC)C[C@@H](C)C(=O)[C@H](C)[C@@H](O)[C@]1(C)O has MIC below 4 µg/mL. Can you tell?
**A:** label 0

**Q:** I wonder whether NC[C@H]1O[C@H](O[C@H]2[C@H](O)[C@@H](O[C@H]3O[C@H](CO)[C@@H](O)[C@H](N)[C@H]3O)[C@H](N)C[C@@H]2N)[C@H](O)[C@@H](O)[C@@H]1O has MIC below 4 µg/mL. Can you tell?
**A:** label 1

**Q:** Is it true that MIC reported for C[C@@H]1O[C@@H]1P(=O)(O)O is less than 4 µg/mL?
**A:** label 0

**Q:** Please determine if CC[C@H]1OC(=O)[C@H](C)[C@@H](O[C@H]2C[C@@](C)(OC)[C@@H](O)[C@H](C)O2)[C@H](C)[C@@H](O[C@@H]2O[C@H](C)C[C@H](N(C)C)[C@H]2O)[C@](C)(O)C[C@@H](C)C(=O)[C@H](C)[C@@H](O)[C@]1(C)O is below 4 µg/mL in terms of MIC.
**A:** label 0

**Q:** Given the entry CN[C@H](CC(C)C)C(=O)N[C@H]1C(=O)N[C@@H](CC(N)=O)C(=O)N[C@H]2C(=O)N[C@H]3C(=O)N[C@H](C(=O)N[C@H](C(=O)O)c4cc(O)cc(O)c4-c4cc3ccc4O)[C@H](O)c3ccc(c(Cl)c3)Oc3cc2cc(c3O[C@@H]2O[C@H](CO)[C@@H](O)[C@H](O)[C@H]2O[C@H]2C[C@](C)(N)[C@H](O)[C@H](C)O2)Oc2ccc(cc2Cl)[C@H]1O , would its reported MIC be below 4 µg/mL?
**A:** label 1

**Q:** Check if MIC falls below 4 µg/mL for Cc1onc(-c2ccccc2)c1C(=O)N[C@@H]1C(=O)N2[C@@H]1SC(C)(C)[C@@H]2C(=O)O .
**A:** label 0

**Q:** Hi there! Is MIC for CO[C@@]1(NC(=O)Cc2cccs2)C(=O)N2C(C(=O)O)=C(COC(N)=O)CS[C@@H]21 below 4 µg/mL, do you know?
**A:** label 0

**Q:** Criterion: MIC strictly below 4 µg/mL. Is it met by NCC[C@H](O)C(=O)N[C@@H]1C[C@H](N)[C@@H](O[C@H]2O[C@H](CN)CC[C@H]2N)[C@H](O)[C@H]1O[C@H]1O[C@H](CO)[C@@H](O)[C@H](N)[C@H]1O ?
**A:** label 1
